assay: Volume of distribution in Sprague-Dawley rat at 2 mg/kg, IV measured upto 12 hrs by LC-MS/MS analysis; assay type: ADME, organism-based; details: in vivo
reportedMetric: Vd (L/kg)
Answers are plain numbers, in L/kg.

QUERY: Specify measured Vd for O=C(c1ccco1)N1CCN(C2CCN(c3ccccc3)CC2)CC1 .
RESULT: 6.04

====

assay: MRT in Sprague-Dawley rat at 20 mg/kg, IG measured upto 12 hrs by LC-MS/MS analysis; type: ADME, organism-based; conditions: in vivo, po
reportedMetric: MRT (h)
Numbers only, in h.

QUERY: Specify measured MRT for O=C(c1ccco1)N1CCN(C2CCN(c3ccccc3)CC2)CC1 .
RESULT: 2.62

====

test: Clearance in Sprague-Dawley rat at 2 mg/kg, iv measured upto 12 hrs by LC-MS/MS analysis; format: ADME, organism-based; settings: in vivo
reportedMetric: clearance (mL/min/kg)
Give bare numbers, in mL/min/kg.

QUERY: Specify measured clearance for O=C(c1ccco1)N1CCN(C2CCN(c3ccccc3)CC2)CC1 .
RESULT: 99.4

====

molecular target: C-X-C chemokine receptor type 4 (Homo sapiens, UniProt P61073); assay: Competitive binding affinity to CXCR4 (unknown origin) assessed as inhibition of CXCR4 to TN14003 interaction at 10 nM preincubated for 10 mins followed by compound washout and subsequent TN14003 addition for 30 mins prior to incubation under dark condition for 30 mins by DAPI staining based laser scanning confocal microscopic analysis relative to control; design: scale not given: the % may be the effect or the level left
Sequence (P61073 whole entry): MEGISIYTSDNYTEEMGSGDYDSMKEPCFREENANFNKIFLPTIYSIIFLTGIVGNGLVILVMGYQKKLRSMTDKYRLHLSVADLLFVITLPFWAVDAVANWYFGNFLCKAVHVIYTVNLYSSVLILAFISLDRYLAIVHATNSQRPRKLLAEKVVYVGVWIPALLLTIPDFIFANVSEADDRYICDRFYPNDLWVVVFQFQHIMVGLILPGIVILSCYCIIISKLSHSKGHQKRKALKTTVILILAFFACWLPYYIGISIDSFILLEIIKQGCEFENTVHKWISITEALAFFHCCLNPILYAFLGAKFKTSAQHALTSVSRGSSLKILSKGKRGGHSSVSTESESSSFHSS
Answer each item with its documented Activity.
Answers are plain numbers, in %.

1. Cc1cccc(NC(=O)N2CCN(c3nccc4ccccc34)CC2)c1; 33.7
2. COc1ccc(C(=O)N[C@@H]2CCc3[nH]c4ccccc4c3C2)cc1; 38.3
3. CC(=O)N1CCC(N(Cc2cccc(C)c2O)C(=O)c2cccc3ccccc23)CC1; 59.2
4. O=S(=O)(c1ccc(F)c(F)c1)N1CCN(c2ccc3ccccc3n2)CC1; 64.8
5. O=C(NC1CCN(Cc2ccccc2)CC1)c1ccc(Cl)cc1Cl; 61.2
6. O=C(c1ccco1)N1CCN(C2CCN(c3ccccc3)CC2)CC1; 78.9
7. Cc1c(C)c2ccc(OCc3ccc(F)c(F)c3)cc2oc1=O; 51.9
8. O=C(c1cc2ccccc2[nH]1)N1CCN(c2ccc(Cl)cn2)CC1; 40.2
9. O=C(NO)c1ccc(NC(=O)c2ccccc2C(F)(F)F)cc1; 55.4
10. O=C(NCc1ccccc1-n1cccn1)c1cnc2ccccc2n1; 11.1

For the 8 compounds below, give their Activity values.
1. O=C(NC1CCN(Cc2cccnc2)CC1)c1cnc2ccccc2c1
2. CC1CN(C(=O)c2ccccc2C(=O)Nc2ccccc2)CCN1C(=O)c1ccc(F)c(F)c1 (stereo unspecified)
3. O=C(c1cnc2ccccc2c1)N1CCC(N2CCOCC2)CC1
4. Cc1cc(O)cc(C(=O)N2CCN(c3ccc(F)cc3)CC2)c1
5. O=C(c1cnc2ccccc2c1)N1CCC(N2CCCC2)CC1
6. Cc1ccc(CN2CCN(c3nc(N)c4sccc4n3)CC2)cc1
7. Cc1ccc(C)c(CC(=O)N2CCN(c3ccccc3)CC2)c1
8. O=S(=O)(NCc1ccc(-c2ccccc2)cc1)c1cc(F)c(F)cc1F

RESULT:
1. 67.1
2. 62.7
3. 53.6
4. 64.3
5. 64.5
6. 59.1
7. 59.5
8. 54.9

For the 3 compounds below, give their Activity values.
1. Fc1ccc(F)c(NCCN2CCN(c3nccc4ccccc34)CC2)c1
2. c1cc(CN2CCCNCCNCCCNCC2)ccc1CN1CCCNCCNCCCNCC1
3. O=C(c1cnc2ccccc2c1)N1CCN(c2ccccc2F)CC1

RESULT:
[58.6, 62.9, 52.2]

====

test: Cmax in Sprague-Dawley rat at 20 mg/kg, IG measured upto 12 hrs by LC-MS/MS analysis; assay type: ADME, organism-based; conditions: in vivo, po
reportedMetric: Cmax (µg/mL)
Give bare numbers, in µg/mL.

QUERY: Specify measured Cmax for O=C(c1ccco1)N1CCN(C2CCN(c3ccccc3)CC2)CC1 .
RESULT: 1.44

====

test: Tmax in Sprague-Dawley rat at 20 mg/kg, IG measured upto 12 hrs by LC-MS/MS analysis; format: ADME, organism-based; conditions: in vivo, po
reportedMetric: Tmax (min)
One number for each entry, in min.

QUERY: Specify measured Tmax for O=C(c1ccco1)N1CCN(C2CCN(c3ccccc3)CC2)CC1 .
RESULT: 15

====

test: Stability in human plasma assessed as compound remaining measured upto 120 mins by LC-MS analysis; type: ADME, cell-free; conditions: read-out: Stability
reportedMetric: remaining at 2 h
Quick note: unit goes after the number.

QUERY: Specify measured remaining at 2 h for O=C(c1ccco1)N1CCN(C2CCN(c3ccccc3)CC2)CC1 .
RESULT: 87%

====

experiment: Tmax in Sprague-Dawley rat at 2 mg/kg, iv measured upto 12 hrs by LC-MS/MS analysis; assay type: ADME, organism-based; details: in vivo
reportedMetric: Tmax (min)
One number for each entry, in min.

QUERY: Specify measured Tmax for O=C(c1ccco1)N1CCN(C2CCN(c3ccccc3)CC2)CC1 .
RESULT: 4.8

====

assay: Cmax in Sprague-Dawley rat at 2 mg/kg, iv measured upto 12 hrs by LC-MS/MS analysis; type: ADME, organism-based; settings: in vivo
reportedMetric: Cmax (ng/mL)
Numbers only, in ng/mL.

QUERY: Specify measured Cmax for O=C(c1ccco1)N1CCN(C2CCN(c3ccccc3)CC2)CC1 .
RESULT: 351

Source: ChEMBL document CHEMBL5512691
